Answer each item with its documented IC50.
Biological target: T1, glutathione S-transferase/human androgen receptor DNA binding domain (amino acids 505-635) (human, UniProt P10275 505-635)
T1 construct: Fusion protein obtained from Dr. Steven Balk; also called GST-DBD; not shown: glutathione S-transferase fusion partner
T1 sequence (looked up): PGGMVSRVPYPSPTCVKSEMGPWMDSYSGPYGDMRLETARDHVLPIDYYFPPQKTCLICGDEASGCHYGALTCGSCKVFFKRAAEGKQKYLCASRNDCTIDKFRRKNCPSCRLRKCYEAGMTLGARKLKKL
Experiment: ECL competition binding assay (IGEN M8): peptide against GST-DBD binding to biotinylated ARE oligonucleotide;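 further: incubation in phosphate-buffered saline pH 7.2 with poly dI/dC, 200 ng GST-DBD, 3 ng oligonucleotide and 30 ng ruthenium-labeled antibody in 0.2 ml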
Give just the numeric value; µM need not be written.

Input: What value of measured IC50 is listed for Ac-KVESSSVFSKPASVTVASDA-NH2 (synthetic peptide of the series based on amino acids 423-548 of ARIP3; also called Cmpd No. 1) [Ac-KVESSSVFSKPASVTVASDA-NH2] ?
Output: 34

Input: Param item = Ac-FMSETQSSPTKGVLMYQPSSV-NH2 (synthetic peptide of the series based on amino acids 423-548 of ARIP3; also called Cmpd No. 5) [Ac-FMSETQSSPTKGVLMYQPSSV-NH2] ; retrieve measured IC50.
Output: 15

Input: I'd like to know its IC50. The binder in question is Ac-IESSSD-NH2 (truncation of Cmpd 10; also called Cmpd No. 49) [Ac-IESSSD-NH2]
Output: 4.3

Input: Name the recorded IC50 for Ac-LTIESSSDE-NH2 (truncation of Cmpd 10; also called Cmpd No. 25) [Ac-LTIESSSDE-NH2] .
Output: 30

Input: Item under review: Ac-PAAIPPSLTDYSVPFHHTPVSSMSSDL-NH2 (synthetic peptide of the series based on amino acids 423-548 of ARIP3; also called Cmpd No. 8) [Ac-PAAIPPSLTDYSVPFHHTPVSSMSSDL-NH2] . Reported IC50?
Output: 28

Input: Report IC50 for Ac-LTIESSSDEA-NH2 (also called Cmpd No. 24) [Ac-LTIESSSDEA-NH2] please.
Output: 2.6

Input: Recorded IC50 of Ac-DSSSEI-NH2 (also called Cmpd No. 37) [Ac-DSSSEI-NH2] , please.
Output: 20
